Biological target: swine's pancreatic elastase (E3) (Sus scrofa)
Sequence (P00772 27-266): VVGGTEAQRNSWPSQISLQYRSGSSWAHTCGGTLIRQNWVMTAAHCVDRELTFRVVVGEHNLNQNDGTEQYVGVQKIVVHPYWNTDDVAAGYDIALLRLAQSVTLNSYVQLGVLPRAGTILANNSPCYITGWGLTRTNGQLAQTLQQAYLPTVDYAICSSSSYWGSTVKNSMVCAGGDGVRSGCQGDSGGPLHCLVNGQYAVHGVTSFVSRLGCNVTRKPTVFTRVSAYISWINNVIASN
Assay: Inhibition constants (Ki) with pancreatic elastase and chromogenic p-nitroanilide substrates
Format: biochemical
Conditions: Table 1; pancreatic elastase; substrate Glt-(Ala)4-NAn; read-out: Ki, substrate Glt-(Ala)4-NAn
Source text: The earlier work also led to the surprising discovery that the carboxy group in the N-terminal part of the inhibitor as compared with the hydrophobic residue, such as an acetyl, substantially enhances inhibition capacity in the same manner as it enhances the constants of elastolytic hydrolysis of substrates of this type. […]
pKi: −log10 of the molar value. Starred links: 1 amine or outer side, 2 acyl side, 3 side chain; linkers in the order of their positions; H or OH if unused. Residues, ends and D or L forms follow the SMILES beside them. Glutaryl = O=C(CCCC(=O)[*:2])[*:1]; Suc = O=C(CCC(=O)[*:2])[*:1]
Reported Endpoint: pKi

# Molecule, Test Result
measured = [
    ("CCNC(=O)[C@H](C)NC(=O)[C@H](C)NC(=O)[C@H](C)NC(=O)CCCC(=O)O [Glt--(Ala)3 --NH--Et]", 5.08),
]

A. CCNC(=O)[C@H](C)NC(=O)[C@H](C)NC(=O)[C@H](C)NC(=O)C=CC(=O)O [Mal--(Ala)3 --NH--Et]
B. CC(C)CNC(=O)[C@@H]1CCCN1C(=O)[C@H](C)NC(=O)CCC(=O)O [Suc--Ala--Pro--NH--iBu]
C. CNC(=O)[C@H](C)NC(=O)[C@H](C)NC(=O)[C@H](C)NC(=O)CCCC(=O)O [Glt--(Ala)3 --NH--Me]
D. CCNC(=O)[C@H](C)NC(=O)[C@H](C)NC(=O)CCCC(=O)O [Glt--(Ala)2 --NH--Et] (Glutaryl-Ala-Ala-NHEt)
(Q) Could you please sort these 4 entries by pKi from high to low? Write out the labels following the order that was asked for.
(A) A, D, C, B
(A: 4.52, D: 3.96, C: 3.49, B: 2.24)

I. CCNC(=O)[C@H](C)NC(=O)[C@H](C)NC(=O)[C@H](C)NC(C)=O [Ac--(Ala)3 --NH--Et, reference compound]
II. CCNC(=O)[C@@H]1CCCN1C(=O)[C@H](C)NC(=O)[C@H](C)NC(=O)CCC(=O)O [Suc--Ala--Ala--Pro--NH--Et] (Suc-Ala-Ala-Pro-NHEt)
(Q) Smaller pKi value? Options are I and II Field: selected label. Fill in the label of the entry you choose.
(A) I
(I: 4.34, II: 5.33)
